Data provenance is paper PMC3129651.

Test system: suspended WT rat hepatocytes
Assay type: in vitro ADME
measurementParameters: 99mTc-MEB 5μCi/mL, 20μM rifamycin SV, 20μM glycyrrhizic acid, 200μM clonidine, 10μM desipramine, 5μM decynium 22, 10μM ketoprofen
reportedProperty: initial 99mTc-MEB uptake in the presence of inhibitor

[in] State the recorded initial 99mTc-MEB uptake in the presence of inhibitor for this entry: CO[C@H]1/C=C/O[C@@]2(C)Oc3c(C)c(O)c4c(O)c(cc(O)c4c3C2=O)NC(=O)/C(C)=C\C=C\[C@H](C)[C@H](O)[C@@H](C)[C@@H](O)[C@@H](C)[C@H](OC(C)=O)[C@@H]1C [rifamycin SV]
[out] 20.7 % of control

[in] State the recorded initial 99mTc-MEB uptake in the presence of inhibitor for this entry: CCN1/C(=C/c2ccc3ccccc3[n+]2CC)C=Cc2ccccc21.[I-] [decynium 22]
[out] marginal effects

[in] State the recorded initial 99mTc-MEB uptake in the presence of inhibitor for this entry: Clc1cccc(Cl)c1N=C1NCCN1 [clonidine]
[out] marginal effects

[in] State the recorded initial 99mTc-MEB uptake in the presence of inhibitor for this entry: CC1(C)[C@@H](O[C@H]2O[C@H](C(=O)O)[C@@H](O)[C@H](O)[C@H]2O[C@@H]2O[C@H](C(=O)O)[C@@H](O)[C@H](O)[C@H]2O)CC[C@]2(C)[C@H]3C(=O)C=C4[C@@H]5C[C@@](C)(C(=O)O)CC[C@]5(C)CC[C@@]4(C)[C@]3(C)CC[C@@H]12 [glycyrrhizic acid]
[out] 39.5 % of control
